The measured values listed here are drawn from ChEMBL document CHEMBL1955816.

SUBJECT OF TEST: Prostaglandin G/H synthase 1 (Ovis aries)
Sequence (P05979 whole entry): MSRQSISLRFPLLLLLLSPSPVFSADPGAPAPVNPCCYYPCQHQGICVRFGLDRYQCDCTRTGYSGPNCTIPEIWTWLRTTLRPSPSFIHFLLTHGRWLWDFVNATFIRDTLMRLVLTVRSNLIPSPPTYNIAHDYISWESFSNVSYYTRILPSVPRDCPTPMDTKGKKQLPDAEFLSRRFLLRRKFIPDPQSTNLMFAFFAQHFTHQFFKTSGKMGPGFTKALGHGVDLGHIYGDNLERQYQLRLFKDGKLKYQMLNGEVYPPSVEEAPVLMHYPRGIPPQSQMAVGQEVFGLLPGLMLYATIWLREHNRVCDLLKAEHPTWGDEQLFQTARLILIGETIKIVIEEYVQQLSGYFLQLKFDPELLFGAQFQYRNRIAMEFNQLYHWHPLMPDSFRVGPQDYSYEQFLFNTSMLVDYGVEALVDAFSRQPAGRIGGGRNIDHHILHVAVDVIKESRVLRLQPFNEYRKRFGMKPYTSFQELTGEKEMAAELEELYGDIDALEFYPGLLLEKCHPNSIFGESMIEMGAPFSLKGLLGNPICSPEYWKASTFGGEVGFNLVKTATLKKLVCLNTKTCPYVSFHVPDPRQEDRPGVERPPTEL
pIC50: −log10 of the molar value.
OBSERVABLE: pIC50

(A) CC(C)Cc1ccc(C(C)C(=O)Oc2ccc(CCO)cc2)cc1 (configuration not stated)
(B) CC(=O)Oc1ccccc1C(=O)Oc1ccc(CCO)cc1
// query // compare measured pIC50, left A , right B , return larger Reply with the label of the item you choose.
// result B

* * *

ASSAY: Lipophilicity, log P of the compound
Assay type: physicochemical
ASSAY CONDITIONS: octanol/water
OBSERVABLE: logP

Recorded logP, per entry:
// query Report measured logP; entry is CC(C)Cc1ccc(C(C)C(=O)O)cc1 (centres undefined) [IBUPROFEN]
// result 3.7

// query Report measured logP; entry is CC(=O)Oc1ccccc1C(=O)O [ASPIRIN]
// result 1.2

(I) CC(=O)Oc1ccccc1C(=O)Oc1ccc(CCO)cc1
(II) CC(C)Cc1ccc(C(C)C(=O)Oc2ccc(CCO)cc2)cc1 (centres undefined)
// query // compare measured logP, left I , right II , return larger Reply with the label of the item you choose.
// result II
